# tgt: HPK1 (Homo sapiens (Human), UniProt Q92918)
# Sequence (Q92918 1-346): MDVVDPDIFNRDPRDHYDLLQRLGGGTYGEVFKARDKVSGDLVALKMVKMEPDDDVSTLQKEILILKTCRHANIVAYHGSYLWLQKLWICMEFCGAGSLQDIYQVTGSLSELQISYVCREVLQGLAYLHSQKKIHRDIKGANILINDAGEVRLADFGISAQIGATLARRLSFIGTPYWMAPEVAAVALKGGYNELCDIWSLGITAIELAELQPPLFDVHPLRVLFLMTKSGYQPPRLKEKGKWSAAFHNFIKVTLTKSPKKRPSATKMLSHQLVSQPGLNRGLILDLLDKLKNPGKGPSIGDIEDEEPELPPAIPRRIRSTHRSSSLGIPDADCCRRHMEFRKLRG
Where a name gives a salt, the structure may show the parent alone.
hey, just use yes if measured Ki is less than 20 nM, otherwise no

# compound, discrete-label
measured = [
    ("CCc1c(Cl)[nH]c2ncc(-c3ccc(N)c(C(=O)N(C)C)c3)cc12", "yes"),
    ("CCc1c(C)[nH]c2ncc(-c3ccc(N)c(C(=O)N(C)C)c3)cc12", "yes"),
    ("Cc1[nH]c2ncc(-c3ccc(N)c(C(=O)N(C)C)c3)cc2c1C(F)(F)F", "no"),
    ("CCc1c(Cl)[nH]c2ncc(-c3ccc(N)c(C(=O)N4CC(O)C4)n3)cc12 [Compound 1-6, formate]", "yes"),
    ("O=C1COCCN1c1cccc(-c2cnc3[nH]c(Cl)c(CCO)c3c2)c1", "no"),
    ("Cc1[nH]c2ncc(-c3cccc(N4CCOCC4=O)n3)cc2c1C(F)(F)F", "no"),
    ("CCc1c(F)[nH]c2ncc(-c3ccc(N)c(C(=O)N(C)C)c3F)cc12", "yes"),
    ("CN(C)C(=O)c1c(N)ccc(-c2cnc3[nH]c(Cl)c(CCO)c3c2)c1F", "yes"),
]

====

# tgt: HPK1 (Homo sapiens (Human), UniProt Q92918)
Structures can show the parent of a compound that is named as a salt.
Ki by entry:
experimental-endpoint: Ki (nM)

# compound, unit-label, quantitative-result
records = [
    ("CCc1c(Cl)[nH]c2ncc(-c3ccnc(N4CCOC4=O)n3)cc12 [Compound 1-7, formate]", "nM", 33),
    ("CCc1c(Cl)[nH]c2ncc(-c3cccc(N4CCOCC4=O)c3)cc12", "nM", 2),
    ("O=C1COCCN1c1cccc(-c2cnc3[nH]c(CO)c(C(F)(F)F)c3c2)c1", "nM", 1700),
    ("Cc1[nH]c2ncc(-c3cc(N)cc(-c4ncccc4CO)c3)cc2c1C(F)(F)F", "nM", 24),
]
